# Test system: A2780 ovarian cancer cells
# experiment: MTT cytotoxicity assay in A2780 (cisplatin sensitive) ovarian cancer cells
# Assay type: cell-based, human
# assay context: 24 h incubation, read-out: IC50 A2780, 24 h
Assignment: determine reported pIC50 for the given compounds.
Answers are plain numbers, as −log10 of the molar value.

Look over these answered cases.
{"columns": ["compound", "pIC50"],
 "data": [
  ["CCCn1c2c(sc1=S)[Se][Au-]1([Se]c3sc(=S)n(CCC)c3[Se]1)[Se]2.c1ccc([P+](c2ccccc2)(c2ccccc2)c2ccccc2)cc1 [[P][AuSePr(=S)]]", 6.04],
  ["CC(=O)OC[C@H]1O[C@@H]([S-])[C@H](OC(C)=O)[C@@H](OC(C)=O)[C@@H]1OC(C)=O.CCP(CC)CC.[Au+] [Auranofin, reference compound]", 5.70],
  ["N.N.[Cl][Pt][Cl] [Cisplatin, reference compound]", 4.68],
  ["CCn1c2c(sc1=O)[S][Au-]1([S]c3sc(=O)n(CC)c3[S]1)[S]2.c1ccc([P+](c2ccccc2)(c2ccccc2)c2ccccc2)cc1 [[P][AuSEt(=O)]]", 6.07],
  ["CCn1c2c(sc1=S)[S][Au-]1([S]c3sc(=S)n(CC)c3[S]1)[S]2.c1ccc([P+](c2ccccc2)(c2ccccc2)c2ccccc2)cc1 [[P][AuSEt(=S)]]", 6.24]
]}

Answer for every listed entry: what is its pIC50? The entries follow.
1. CC(C)n1c2c(sc1=S)[Se][Au-]1([Se]c3sc(=S)n(C(C)C)c3[Se]1)[Se]2.CC[N+](CC)(CC)CC [[N][AuSeiPr(=S)]]
2. CC[N+](CC)(CC)CC.Cn1c2c(sc1=S)[S][Au-]1([S]c3sc(=S)n(C)c3[S]1)[S]2 [[N][AuSMe(=S)]]

a:
4.52
5.79

* * *

# experiment: Cyclic voltammetry
# Format: physicochemical
# assay context: CH2Cl2, NBu4PF6, Pt, 100 mV.s^−1
Assignment: determine reported E −2/−1 (reduction of monoanion into dianion) for the given molecules.
One number for each entry, in V vs. SCE.

Look over these answered cases.
{"columns": ["molecule", "meas value"],
 "data": [
  ["Cn1c2c(sc1=S)[S][Au-]1([S]c3sc(=S)n(C)c3[S]1)[S]2 [[AuSMe(=S)]^−1]", "−0.85"],
  ["CCn1c2c(sc1=S)[S][Au-]1([S]c3sc(=S)n(CC)c3[S]1)[S]2 [[AuSEt(=S)]^−1]", "−0.90"]
]}

Okay, now this molecule:
q: Consider the molecule CC(C)n1c2c(sc1=S)[Se][Au-]1([Se]c3sc(=S)n(C(C)C)c3[Se]1)[Se]2 [[AuSeiPr(=S)]^−1] and give its measured E −2/−1 (reduction of monoanion into dianion).
a: −0.94

* * *

# experiment: Cyclic voltammetry
# Type: physicochemical
# assay context: CH2Cl2, NBu4PF6, Pt, 100 mV.s^−1
Marks after values point to notes of the source that are not given here.
observable: E −2/−1 (reduction of monoanion into dianion)

{"columns": ["compound", "meas value"],
 "data": [
  ["CCn1c2c(sc1=[Se])[Se][Au-]1([Se]c3sc(=[Se])n(CC)c3[Se]1)[Se]2 [[AuSeEt(=Se)]^−1]", "−0.84 ** V vs. SCE"],
  ["CCn1c2c(sc1=S)[Se][Au-]1([Se]c3sc(=S)n(CC)c3[Se]1)[Se]2 [[AuSeEt(=S)]^−1]", "−0.89 ** V vs. SCE"]
]}

Okay, now this compound:
q: Consider the compound CCn1c2c(sc1=[Se])[S][Au-]1([S]c3sc(=[Se])n(CC)c3[S]1)[S]2 [[AuSEt(=Se)]^−1] and give its measured E −2/−1 (reduction of monoanion into dianion).
a: −0.80 ** V vs. SCE

meta.source: paper PMC9266914
